Test system: CCRF-CEM leukemia
Assay: NCI-60 one-dose screen, 48 h
Details: 10 µM unless noted
About 83,000 compounds went through this panel and 20% of them were active in at least one assay; those are over-represented in the sample as a whole. Active and inactive are the calls of the source. The calls were made as follows: active = growth percent below 10; inactive = the rest.
Assign a class; possible classes are active, inactive

>  <structure.as.smiles>
CN1CCN(Cc2ccc(NC(=O)c3cncc(C#Cc4c(N)ncc5ccccc45)c3)cc2C(F)(F)F)CC1

>  <label.value>
active

$$$$
>  <structure.as.smiles>
CN1CCN(Cc2ccc(NC(=O)c3cc(C#Cc4cnc(N)c5ncccc45)n(C)n3)cc2C(F)(F)F)CC1

>  <label.value>
active

$$$$
>  <structure.as.smiles>
CCOC(=O)c1c(C)nc2c(c1N)C(=O)C(=O)N2CCc1ccc(OC)c(OC)c1

>  <label.value>
inactive

$$$$
>  <structure.as.smiles>
CCNCCNc1c(C)c(-c2ccc(C(F)(F)F)cc2)c(C#N)c2nc3ccccc3n12

>  <label.value>
inactive

$$$$

Next item in the queue.
Q: Per the assay record, what outcome was assigned to Cc1c2ccncc2c(C)c2c1c1ccccc1n2CCCCCC(=O)O ?
A: inactive

====

Tested on: UACC-62 melanoma
Assay: NCI-60 one-dose screen, 48 h
Settings: 10 µM unless noted
Compounds without any hit were thinned out: in the full panel of roughly 83,000, 20% have a hit. Activity calls are given as the source filed them. How the source made its calls: active means growth percent below 10; inactive means the rest.
Assign a class; possible classes are active, inactive

# example entries with known answers
>  <compound>
CC(C)(C)n1cc(-c2ccnc(NCCNS(=O)(=O)c3cccc4ccccc34)c2)c(-c2cccc(O)c2)n1

>  <label.value>
inactive

$$$$
>  <compound>
O=C(NC1CCCCCC1)c1ccc2c(=O)n3c(nc2c1)CCCCC3

>  <label.value>
inactive

$$$$
>  <compound>
C#Cc1ccc(NC(=O)Cc2ccc(/C=C/C(=O)c3nccn3C)cc2)cc1

>  <label.value>
inactive

$$$$
>  <compound>
CCOC(=O)/C(=C/c1ccc([N+](=O)[O-])cc1)C(=O)c1ccccc1

>  <label.value>
inactive

$$$$
>  <compound>
COc1cc2c(c(OC)c1OC)CCC(c1cccc(C(=O)Nc3ccccc3Br)c1)O2 (stereo not given)

>  <label.value>
inactive

$$$$
>  <compound>
CN(C)c1ccc(/C=C/C2=[N+](C)c3ccccc3C2(C)C)cc1

>  <label.value>
active

$$$$
>  <compound>
COc1cc2c(c(OC)c1OC)CCC(c1cccc(NC(=O)c3cccc(Cl)c3)c1)O2 (stereo not given)

>  <label.value>
inactive

$$$$
>  <compound>
O=C1/C(=C/c2ccc(Br)cc2)COc2ccc(O)cc21

>  <label.value>
inactive

$$$$

Q: Per the assay record, what outcome was assigned to Cc1nn(C)c2ncnc(Nc3ccccc3Br)c12 ?
A: inactive

Q: Queued: CC/C(=C(/c1ccc(Cl)cc1)c1ccc(OCCN2CCCCCC2)cc1)c1ccccc1
A: inactive

Q: Queued: COC(=O)c1c(C(=O)OC)c2ccc3c4ncccc4ccc3n2c1C(=O)c1ccc(C)cc1
A: inactive

Q: Queued: COC(=O)c1nc(-c2ccccc2)oc1S(=O)(=O)N1CCN(c2ccc(OC)cc2)CC1
A: inactive

====

Test system: SNB-75 CNS
Assay: NCI-60 one-dose screen, 48 h (100 = growth as untreated, 0 = no growth, -100 = all killed)
Details: 10 µM unless noted
Compounds without any hit were thinned out: in the full panel of roughly 83,000, 20% have a hit.
Binary call on growth with cut-off 80%: strictly below means MET, and equality or higher means NOT MET.

>  <compound>
COc1ccc(-c2ccc(-c3ccc(C(=N)N)nc3)s2)cc1

>  <label.value>
NOT MET

$$$$
>  <compound>
O=C(O)/C=C/c1cn(-c2ccccc2)nc1-c1ccc(F)cc1

>  <label.value>
NOT MET

$$$$

Q: Given the entry O=C1C=CC2(O)OC(c3ccccc3)CC(=O)C2=C1O (stereo unspecified) , would its reported growth be below 80%?
A: NOT MET

Q: Queued: Cc1c2ccncc2c(C)c2c1c1ccccc1n2CCCCCC(=O)O
A: NOT MET

Q: Queued: Cc1ccc(S(=O)(=O)c2nc(-c3ccccc3)oc2S(C)=O)cc1 (stereo unspecified)
A: MET

Q: Queued: COc1cccc(/C=C2\CCc3ccccc3C2=O)c1
A: NOT MET

Q: Queued: Cc1c2cnccc2c(C)c2c1c1cc(C(=O)O)ccc1n2C
A: MET

Q: Queued: CCCC[N+]1(C)CCN=C1Cc1ccccc1 (stereo unspecified)
A: NOT MET

Q: Queued: CCCN1C(=O)N(CCC)C2C1NC(=S)N2/N=C/C=C/c1ccccc1OC (stereo unspecified)
A: MET
